Form field: PBM binding z-score (one value per entry).
Test system: THRa homodimer (NR concentration 90 nM)
Assay: PBM binding z-score (relative to random genomic background probes); higher = stronger binding; sequences stand for … in GC…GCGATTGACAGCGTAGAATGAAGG

{"item.sequence": "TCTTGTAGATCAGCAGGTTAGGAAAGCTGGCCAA", "PBM binding z-score": -0.496}
{"item.sequence": "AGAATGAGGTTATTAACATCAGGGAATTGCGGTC", "PBM binding z-score": 0.447}
{"item.sequence": "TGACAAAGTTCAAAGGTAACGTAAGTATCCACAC", "PBM binding z-score": -0.0359}
{"item.sequence": "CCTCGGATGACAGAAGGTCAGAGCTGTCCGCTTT", "PBM binding z-score": -0.359}
{"item.sequence": "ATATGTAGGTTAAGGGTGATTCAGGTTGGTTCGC", "PBM binding z-score": 1.39}
{"item.sequence": "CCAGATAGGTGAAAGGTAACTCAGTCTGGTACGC", "PBM binding z-score": 0.0815}
{"item.sequence": "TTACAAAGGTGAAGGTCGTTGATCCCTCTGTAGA", "PBM binding z-score": 0.228}
{"item.sequence": "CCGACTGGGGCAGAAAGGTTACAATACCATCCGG", "PBM binding z-score": -0.555}
{"item.sequence": "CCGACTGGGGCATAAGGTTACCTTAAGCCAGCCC", "PBM binding z-score": 2.31}
{"item.sequence": "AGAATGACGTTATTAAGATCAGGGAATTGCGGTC", "PBM binding z-score": -0.892}
{"item.sequence": "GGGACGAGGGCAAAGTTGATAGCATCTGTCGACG", "PBM binding z-score": 0.0608}
{"item.sequence": "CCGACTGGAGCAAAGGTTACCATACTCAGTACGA", "PBM binding z-score": 0.122}

---

Test system: VDR:RXRa (NR concentration 270 nM, RXRa partner concentration 90 nM)
Assay: PBM binding z-score (relative to random genomic background probes); higher = stronger binding; sequences stand for … in GC…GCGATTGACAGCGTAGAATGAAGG
Form field: PBM binding z-score (one value per entry).

{"item.sequence": "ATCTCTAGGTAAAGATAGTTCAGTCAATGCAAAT", "assay.target": "VDR:RXRa (NR concentration 270 nM, RXRa partner concentration 90 nM)", "PBM binding z-score": 0.723}
{"item.sequence": "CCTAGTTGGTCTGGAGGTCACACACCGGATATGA", "assay.target": "VDR:RXRa (NR concentration 270 nM, RXRa partner concentration 90 nM)", "PBM binding z-score": 4.03}
{"item.sequence": "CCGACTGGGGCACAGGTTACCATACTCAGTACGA", "assay.target": "VDR:RXRa (NR concentration 270 nM, RXRa partner concentration 90 nM)", "PBM binding z-score": -0.165}
{"item.sequence": "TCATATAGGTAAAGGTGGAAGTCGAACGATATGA", "assay.target": "VDR:RXRa (NR concentration 270 nM, RXRa partner concentration 90 nM)", "PBM binding z-score": 0.368}
{"item.sequence": "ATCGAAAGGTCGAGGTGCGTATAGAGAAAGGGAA", "assay.target": "VDR:RXRa (NR concentration 270 nM, RXRa partner concentration 90 nM)", "PBM binding z-score": 2.16}
{"item.sequence": "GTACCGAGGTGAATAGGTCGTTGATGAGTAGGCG", "assay.target": "VDR:RXRa (NR concentration 270 nM, RXRa partner concentration 90 nM)", "PBM binding z-score": 1.14}
{"item.sequence": "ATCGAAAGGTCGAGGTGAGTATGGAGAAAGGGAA", "assay.target": "VDR:RXRa (NR concentration 270 nM, RXRa partner concentration 90 nM)", "PBM binding z-score": 2.59}
{"item.sequence": "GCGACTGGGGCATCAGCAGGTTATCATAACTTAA", "assay.target": "VDR:RXRa (NR concentration 270 nM, RXRa partner concentration 90 nM)", "PBM binding z-score": -0.0496}
{"item.sequence": "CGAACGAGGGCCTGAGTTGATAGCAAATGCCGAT", "assay.target": "VDR:RXRa (NR concentration 270 nM, RXRa partner concentration 90 nM)", "PBM binding z-score": -0.469}
{"item.sequence": "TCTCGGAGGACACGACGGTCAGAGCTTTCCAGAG", "assay.target": "VDR:RXRa (NR concentration 270 nM, RXRa partner concentration 90 nM)", "PBM binding z-score": -0.164}
{"item.sequence": "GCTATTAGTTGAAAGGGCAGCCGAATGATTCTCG", "assay.target": "VDR:RXRa (NR concentration 270 nM, RXRa partner concentration 90 nM)", "PBM binding z-score": 0.0527}
{"item.sequence": "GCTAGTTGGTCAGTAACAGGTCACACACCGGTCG", "assay.target": "VDR:RXRa (NR concentration 270 nM, RXRa partner concentration 90 nM)", "PBM binding z-score": 1.68}
